- Tested on: SN12C renal
- experimental.details: NCI tumour cell line growth inhibition, 48 h
observed.property: TGI

CCCCN(CCCC)CCCN=c1nc2c(c(N)n1-c1ccccc1)c(=S)n(-c1ccccc1)c(=S)n2-c1ccccc1
2.79 µM
CN1C2C=C(c3ccccc3)CC1CC2 (stereo not given)
> 100 µM
O=c1c2cc(Br)cc(Br)c2[nH]c(=S)n1-c1ccccc1
> 100 µM
CC(=O)OC1C(CCl)OC(N=[N+]=[N-])C(OC(C)=O)C1OC(C)=O (stereo not given)
> 100 µM
Cc1c(C(=O)O)c2cc3ccccc3cc2c(=O)n1C
> 10 µM
O=C1NC(=O)C(C(c2ccc(Cl)cc2)C2C(=O)NC(=O)NC2=O)C(=O)N1
> 100 µM
CN(C)c1ccc(/C=C(\NC(=O)c2ccccc2)C(=O)Nc2ccccc2C(=O)O)cc1
> 100 µM
CC(C)N=C(NC#N)NS(=O)(=O)c1cnccc1Nc1ccc(Cl)cc1
> 100 µM
COc1cccc(NC(=O)CC(=O)N2NC(C)C(N=Nc3cccc(C(=O)O)c3)C2=O)c1 (stereo not given)
> 100 µM

**Query** Consider the compound shown here: CC1(C)C[C@H]2C=C(C=O)[C@]34C[C@]3(C(=O)OC4O)[C@H]2C1 (stereo not given in full) What is its recorded TGI?
**Result** > 100 µM

Taken from PubChem BioAssay (NCI).
